# TARGET UNDER TEST: T1, VPS4B, purified (His-tagged Sumo construct) (UniProt O75351 1-444)
# T1 construct: also called Vacuolar Protein Sorting 4; not shown: His tag and Sumo (pRSet B vector)
# T1 sequence (looked up): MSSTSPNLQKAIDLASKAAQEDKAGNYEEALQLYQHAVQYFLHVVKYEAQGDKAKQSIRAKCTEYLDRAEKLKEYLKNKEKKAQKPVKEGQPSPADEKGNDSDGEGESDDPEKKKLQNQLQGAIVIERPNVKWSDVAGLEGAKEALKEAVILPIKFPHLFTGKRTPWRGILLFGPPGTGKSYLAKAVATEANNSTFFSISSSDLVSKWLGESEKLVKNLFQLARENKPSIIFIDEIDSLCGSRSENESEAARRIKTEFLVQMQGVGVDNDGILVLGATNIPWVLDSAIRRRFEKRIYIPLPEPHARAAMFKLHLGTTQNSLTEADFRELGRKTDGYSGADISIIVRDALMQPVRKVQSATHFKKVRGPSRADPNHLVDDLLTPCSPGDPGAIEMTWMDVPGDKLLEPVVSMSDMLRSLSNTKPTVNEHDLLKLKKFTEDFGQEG
# ASSAY NAME: fluorescence polarization (FIG. 8)
pKd: −log10 of the molar value. Ends that are not written are not given here. * marks the point of attachment. FITC = O=C1OC2(c3ccc(O)cc3Oc3cc(O)ccc32)c2ccc(NC(=S)*)cc21
EXPERIMENTAL READOUT: pKd

// {FITC}-DEEIERQLKALG (Synthetic peptide (LifeTein) with an N-terminal FITC moiety, used in the fluorescence polarization assays; also called DPpep1.3; FITC-Pdpep1.3) [FITC-labeled PDpep1.3 peptide DEEIERQLKALG] : pKd value = < 4.00
